Biological target: T1, Ebola virus VP30 C-terminal domain (amino acids 139–288) (Ebola virus (EBOV), UniProt Q05323 139-288)
T1 chain: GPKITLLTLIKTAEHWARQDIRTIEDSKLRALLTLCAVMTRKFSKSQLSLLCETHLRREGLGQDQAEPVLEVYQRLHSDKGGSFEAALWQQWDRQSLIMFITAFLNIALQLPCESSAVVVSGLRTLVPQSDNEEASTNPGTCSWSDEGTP
Test: ITC
property: pKd
# reply with the number alone; pKd is -log10 of concentration in mol/L

Prompt: Please give the measured pKd for this binder: NTPTVAPPAPVYKDTGVD [SUDV NP peptide (600–617) fused to T4 lysozyme]
Completion: 5.02
